# testedOn: 5-hydroxytryptamine receptor 6 (Homo sapiens)
# Sequence (P50406 whole entry): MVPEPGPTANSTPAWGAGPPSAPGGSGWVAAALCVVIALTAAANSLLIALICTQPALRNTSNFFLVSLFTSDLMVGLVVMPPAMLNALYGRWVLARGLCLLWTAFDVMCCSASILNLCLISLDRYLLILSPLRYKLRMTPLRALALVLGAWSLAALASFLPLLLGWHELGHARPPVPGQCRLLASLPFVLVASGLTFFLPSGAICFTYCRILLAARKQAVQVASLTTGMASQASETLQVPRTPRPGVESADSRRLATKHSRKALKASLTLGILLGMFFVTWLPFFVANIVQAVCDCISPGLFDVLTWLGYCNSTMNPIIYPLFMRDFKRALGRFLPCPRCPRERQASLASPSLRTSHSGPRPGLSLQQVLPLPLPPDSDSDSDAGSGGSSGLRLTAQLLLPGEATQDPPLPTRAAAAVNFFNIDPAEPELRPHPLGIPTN
# methodSummary: Antagonist activity at human 5-HT6 receptor assessed as inhibition of 5-HT-induced cAMP level treated for 10 mins prior to 5-HT challenge for 30 mins by homogeneous time-resolved fluorescent assay
List of IC50 values.
A number alone suffices; assume nM.

[ask] Please give the measured IC50 for this compound: O=C1CC(c2ccccc2)CN1c1cnc2c(N3CCNCC3)cccc2c1 (single isomer, unassigned; enantiomer 1)
[reply] 8

API: the following record is the query input.
[ask] I am curious: what IC50 value has been reported for O=C1CC(c2ccccc2)CN1c1cnc2c(N3CCNCC3)cccc2c1 (racemic) ?
[reply] 15

----------
# testedOn: UniProtKB P50406
# methodSummary: Displacement of [3H]LSD from human recombinant 5-HT6 receptor expressed in CHO-K1 cell membrane after 3 hrs by liquid scintillation counting analysis
Reported pKi values for a set of molecules
On this scale, pKi is minus log10 of a concentration expressed in M (mol/L).

Use the examples below as a reference point.
[ask] Looking for the measured pKi of O=C1CCCN1c1cnc2c(N3CCNCC3)cccc2c1 , can you help?
[reply] 5.31

[ask] Quick one: pKi for O=C1OC(c2ccccc2Cl)CN1c1ccc(N2CCNCC2)cc1 (racemic) ?
[reply] 5.72

[ask] Consider the molecule Clc1ccccc1C1CCN(c2ccc3c(c2)CCNCC3)C1 (racemic) and give its measured pKi.
[reply] 6.19

[ask] Fill in: pKi of O=C1CC(c2ccccc2)CN1c1ccc2c(c1)CCNCC2 (racemic) is ___
[reply] 7.27

[ask] Item under review: O=C1OC(c2ccccc2Cl)CN1c1ccc2c(c1)CNCC2 (racemic) . Reported pKi?
[reply] 6.82

Turning now to a further record.
[ask] Name the recorded pKi for O=C1CC(c2ccccc2Cl)CN1c1ccc2c(c1)CCNCC2 (racemic) .
[reply] 7.00
